The values you see were collected from patent US9554990B2.

Test system: Mouse intestinal CCK-producing cell line STC-1
assay comment: Confirmation test of CCK secretion-stimulating activity (CCK in supernatant, enzyme immunoassay)
Type: cell-based
details: Table 2B; 100 μM test material, 60 minutes, STC-1; (sample minus vehicle) divided by value of 70 mM KCl control
property label: CCK secretion-promoting activity Score
Reply with just the number.

Problem: Identify measured CCK secretion-promoting activity Score associated with CCCCCCCCC/C=C/C=O [compound 10, trans-2-dodecenal]
Solution: −0.319

Problem: Identify measured CCK secretion-promoting activity Score associated with C=CCCCCCCCCC=O [compound 14, trans-10-undecenal]
Solution: −0.458

Problem: Identify measured CCK secretion-promoting activity Score associated with CCCCCC/C=C/C(C)=O [compound 22, trans-3-decen-2-one]
Solution: 0.169

Problem: Identify measured CCK secretion-promoting activity Score associated with CCCC=O.CCCC=O
Solution: 0.017

Problem: Identify measured CCK secretion-promoting activity Score associated with CCCCCCCCCC=O
Solution: 0.042

Problem: Identify measured CCK secretion-promoting activity Score associated with CCCCCCCC/C=C/C=O [compound 9, trans-2-undecenal]
Solution: −0.137

Problem: Identify measured CCK secretion-promoting activity Score associated with CCCCCCCC(=O)O
Solution: −0.140
